Test system: panel of cell lines
measurement description: cells
study conditions: read-out: IC50 values, cancer cell lines
parameter: IC50

> print(dat)
                                smiles.data          val
1  COc1cc2c(c(OC)c1OC)-c1ccc(N(C)C(=O)CCC3=C4C(C)=CC(C)=[N+]4[B-](F)(F)n4c(C)cc(C)c43)c(=O)cc1[C@@H](NC(C)=O)CC2  2.5 to 9 µM

Kindly consider the entry below.
Using known records, supply IC50 for COc1cc2c(c(OC)c1OC)-c1ccc(N(C)CCCCC3=C4C(C)=CC(C)=[N+]4[B-](F)(F)n4c(C)cc(C)c43)c(=O)cc1[C@@H](NC(C)=O)CC2
2.5 to 9 µM

---

Tested on: K562-TAX
measurement description: MTS cytotoxicity assay, 72 h
Type: cell-based
study conditions: read-out: IC50 K562-TAX
parameter: pIC50
Numbers only, as −log10 of the molar value.

compound	pIC50
COc1cc2c(c(OC)c1OC)-c1ccc(OC)c(=O)cc1[C@@H](NC(=O)CCCCCCCCCCC1=C3C(C)=CC(C)=[N+]3[B-](F)(F)n3c(C)cc(C)c31)CC2 [CB2]	6.24

// input: 2 compounds below; output: pIC50 for each
1. COc1cc2c(c(OC)c1OC)-c1ccc(OC)c(=O)cc1[C@@H](NC(=O)CCCC[N+](C)(C)CCCCC1=C3C(C)=CC(C)=[N+]3[B-](F)(F)n3c(C)cc(C)c31)CC2 [CB3]
2. COc1cc(C2=C3C(C)=CC(C)=[N+]3[B-](F)(F)n3c(C)cc(C)c32)ccc1OCc1cn([C@H]2CCc3cc(OC)c(OC)c(OC)c3-c3ccc(OC)c(=O)cc32)n[n+]1C [CB9]

1. 4.40
2. 5.24

Using known records, supply pIC50 for COc1cc2c(c(OC)c1OC)-c1ccc(OC)c(=O)cc1[C@@H](NC(=O)CCC1=C3C(C)=CC(C)=[N+]3[B-](F)(F)n3c(C)cc(C)c31)CC2 [CB1]
5.83

---

System: CCRF-CEM lymphoblasts
measurement description: FACS analysis of cell cycle, apoptosis, mitosis and polyploidy
study conditions: 1×IC50, 24 h
Assign labels as follows, please: 1.0 for Polyploid cells below 20%; 0.0 for Polyploid cells equal to or exceeding 20%.

> print(dat)
                                   compound  category.label
1  COc1cc2c(c(OC)c1OC)-c1ccc(OC)c(=O)cc1[C@@H](n1cc(CCCCCCCCC3=C4C(C)=CC(C)=[N+]4[B-](F)(F)n4c(C)cc(C)c43)nn1)CC2             0.0
2  COc1cc2c(c(OC)c1OC)-c1ccc(OC)c(=O)cc1[C@@H](NC(=O)CCCC[N+](C)(C)CCCCC1=C3C(C)=CC(C)=[N+]3[B-](F)(F)n3c(C)cc(C)c31)CC2             0.0
3  COc1cc2c(c(OC)c1OC)-c1ccc(OC)c(=O)cc1[C@@H](n1cc(CCCC3=C4C(C)=CC(C)=[N+]4[B-](F)(F)n4c(C)cc(C)c43)[n+](C)n1)CC2             0.0
4  COc1cc2c(c(OC)c1OC)-c1ccc(OC)c(=O)cc1[C@@H](n1cc(CCCC3=C4C(C)=CC(C)=[N+]4[B-](F)(F)n4c(C)cc(C)c43)nn1)CC2             1.0
5  COc1cc(C2=C3C(C)=CC(C)=[N+]3[B-](F)(F)n3c(C)cc(C)c32)ccc1OCc1cn([C@H]2CCc3cc(OC)c(OC)c(OC)c3-c3ccc(OC)c(=O)cc32)nn1             0.0
6  COc1cc(C2=C3C(C)=CC(C)=[N+]3[B-](F)(F)n3c(C)cc(C)c32)ccc1OCc1cn([C@H]2CCc3cc(OC)c(OC)c(OC)c3-c3ccc(OC)c(=O)cc32)n[n+]1C             0.0
7  COc1cc2c(c(OC)c1OC)-c1ccc(OC)c(=O)cc1[C@@H](NC(=O)CCCCCCCCCCC1=C3C(C)=CC(C)=[N+]3[B-](F)(F)n3c(C)cc(C)c31)CC2             0.0
8  COc1cc2c(c(OC)c1OC)-c1ccc(N(C)C(=O)CCC3=C4C(C)=CC(C)=[N+]4[B-](F)(F)n4c(C)cc(C)c43)c(=O)cc1[C@@H](NC(C)=O)CC2             1.0

Regarding COc1cc2c(c(OC)c1OC)-c1ccc(NCCCCC3=C4C(C)=CC(C)=[N+]4[B-](F)(F)n4c(C)cc(C)c43)c(=O)cc1[C@@H](NC(C)=O)CC2 , kindly confirm whether its Polyploid cells is beneath 20%.
1.0

Regarding COc1cc2c(c(OC)c1OC)-c1ccc(N(C)CCCCC3=C4C(C)=CC(C)=[N+]4[B-](F)(F)n4c(C)cc(C)c43)c(=O)cc1[C@@H](NC(C)=O)CC2 , kindly confirm whether its Polyploid cells is beneath 20%.
1.0

Regarding COc1cc2c(c(OC)c1OC)-c1ccc(OC)c(=O)cc1[C@@H](n1cc(CCCCCCCCC3=C4C(C)=CC(C)=[N+]4[B-](F)(F)n4c(C)cc(C)c43)[n+](C)n1)CC2 , kindly confirm whether its Polyploid cells is beneath 20%.
0.0

Regarding COc1cc2c(c(OC)c1OC)-c1ccc(OC)c(=O)cc1[C@@H](NC(=O)CCC1=C3C(C)=CC(C)=[N+]3[B-](F)(F)n3c(C)cc(C)c31)CC2 , kindly confirm whether its Polyploid cells is beneath 20%.
1.0

Regarding COc1cc2c(c(OC)c1OC)-c1ccc(OC)c(=O)cc1[C@@H](NC(C)=O)CC2 [Col, colchicine, reference compound] , kindly confirm whether its Polyploid cells is beneath 20%.
1.0

---

Kindly supply the reported pIC50 values for the records listed here.
Test system: BJ
measurement description: MTS cytotoxicity assay, 72 h
Assay type: cell-based
study conditions: Homo sapiens, read-out: IC50 BJ
pIC50: −log10 of the molar value.

molecule	parameter	val
COc1cc2c(c(OC)c1OC)-c1ccc(OC)c(=O)cc1[C@@H](n1cc(CCCCCCCCC3=C4C(C)=CC(C)=[N+]4[B-](F)(F)n4c(C)cc(C)c43)[n+](C)n1)CC2 [CB8]	pIC50	4.43
COc1cc(C2=C3C(C)=CC(C)=[N+]3[B-](F)(F)n3c(C)cc(C)c32)ccc1OCc1cn([C@H]2CCc3cc(OC)c(OC)c(OC)c3-c3ccc(OC)c(=O)cc32)n[n+]1C [CB9]	pIC50	< 4.30
COc1cc2c(c(OC)c1OC)-c1ccc(N(C)CCCCC3=C4C(C)=CC(C)=[N+]4[B-](F)(F)n4c(C)cc(C)c43)c(=O)cc1[C@@H](NC(C)=O)CC2 [CB11]	pIC50	< 4.30
COc1cc2c(c(OC)c1OC)-c1ccc(N(C)C(=O)CCC3=C4C(C)=CC(C)=[N+]4[B-](F)(F)n4c(C)cc(C)c43)c(=O)cc1[C@@H](NC(C)=O)CC2 [CB12]	pIC50	< 4.30

Kindly consider the entry below.
Using known records, supply pIC50 for COc1cc2c(c(OC)c1OC)-c1ccc(OC)c(=O)cc1[C@@H](NC(=O)CCCC[N+](C)(C)CCCCC1=C3C(C)=CC(C)=[N+]3[B-](F)(F)n3c(C)cc(C)c31)CC2 [CB3]
< 4.30

---

System: BJ
measurement description: MTS cytotoxicity assay, 72 h
Type: cell-based
study conditions: Homo sapiens, read-out: IC50 BJ
pIC50: −log10 of the molar value.
Kindly supply the reported pIC50 values for the records listed here.

Solved entries (count: 2):
> print(dat)
                                smiles.data  target  parameter     val
1  COc1cc2c(c(OC)c1OC)-c1ccc(OC)c(=O)cc1[C@@H](NC(=O)CCCCCCCCCCC1=C3C(C)=CC(C)=[N+]3[B-](F)(F)n3c(C)cc(C)c31)CC2      BJ      pIC50  < 4.30
2  COc1cc2c(c(OC)c1OC)-c1ccc(OC)c(=O)cc1[C@@H](NC(=O)CCC1=C3C(C)=CC(C)=[N+]3[B-](F)(F)n3c(C)cc(C)c31)CC2      BJ      pIC50    5.08

Using known records, supply pIC50 for COc1cc2c(c(OC)c1OC)-c1ccc(OC)c(=O)cc1[C@@H](n1cc(CCCCCCCCC3=C4C(C)=CC(C)=[N+]4[B-](F)(F)n4c(C)cc(C)c43)nn1)CC2
< 4.30

---

System: CCRF-CEM lymphoblasts
measurement description: FACS analysis of cell cycle, apoptosis, mitosis and polyploidy
study conditions: 5×IC50, 24 h
parameter: Polyploid cells (%)
One number for each entry, in %.

Solved entries (count: 4):
> print(dat)
                                   compound    val
1  COc1cc2c(c(OC)c1OC)-c1ccc(OC)c(=O)cc1[C@@H](NC(=O)CCCC[N+](C)(C)CCCCC1=C3C(C)=CC(C)=[N+]3[B-](F)(F)n3c(C)cc(C)c31)CC2  26.25
2  COc1cc2c(c(OC)c1OC)-c1ccc(N(C)C(=O)CCC3=C4C(C)=CC(C)=[N+]4[B-](F)(F)n4c(C)cc(C)c43)c(=O)cc1[C@@H](NC(C)=O)CC2  23.39
3  COc1cc2c(c(OC)c1OC)-c1ccc(N(C)CCCCC3=C4C(C)=CC(C)=[N+]4[B-](F)(F)n4c(C)cc(C)c43)c(=O)cc1[C@@H](NC(C)=O)CC2  24.88
4  COc1cc2c(c(OC)c1OC)-c1ccc(OC)c(=O)cc1[C@@H](NC(=O)CCC1=C3C(C)=CC(C)=[N+]3[B-](F)(F)n3c(C)cc(C)c31)CC2  19.14

// input: 7 compounds below; output: Polyploid cells for each
1. COc1cc2c(c(OC)c1OC)-c1ccc(OC)c(=O)cc1[C@@H](n1cc(CCCCCCCCC3=C4C(C)=CC(C)=[N+]4[B-](F)(F)n4c(C)cc(C)c43)nn1)CC2
2. COc1cc2c(c(OC)c1OC)-c1ccc(OC)c(=O)cc1[C@@H](NC(C)=O)CC2 [Col, colchicine, reference compound]
3. COc1cc(C2=C3C(C)=CC(C)=[N+]3[B-](F)(F)n3c(C)cc(C)c32)ccc1OCc1cn([C@H]2CCc3cc(OC)c(OC)c(OC)c3-c3ccc(OC)c(=O)cc32)nn1
4. COc1cc2c(c(OC)c1OC)-c1ccc(OC)c(=O)cc1[C@@H](n1cc(CCCC3=C4C(C)=CC(C)=[N+]4[B-](F)(F)n4c(C)cc(C)c43)nn1)CC2
5. COc1cc2c(c(OC)c1OC)-c1ccc(OC)c(=O)cc1[C@@H](NC(=O)CCCCCCCCCCC1=C3C(C)=CC(C)=[N+]3[B-](F)(F)n3c(C)cc(C)c31)CC2
6. COc1cc2c(c(OC)c1OC)-c1ccc(OC)c(=O)cc1[C@@H](n1cc(CCCCCCCCC3=C4C(C)=CC(C)=[N+]4[B-](F)(F)n4c(C)cc(C)c43)[n+](C)n1)CC2
7. COc1cc(C2=C3C(C)=CC(C)=[N+]3[B-](F)(F)n3c(C)cc(C)c32)ccc1OCc1cn([C@H]2CCc3cc(OC)c(OC)c(OC)c3-c3ccc(OC)c(=O)cc32)n[n+]1C

26.07
14.73
24.76
23.72
26.18
20.18
26.30

// input: 2 compounds below; output: Polyploid cells for each
1. COc1cc2c(c(OC)c1OC)-c1ccc(NCCCCC3=C4C(C)=CC(C)=[N+]4[B-](F)(F)n4c(C)cc(C)c43)c(=O)cc1[C@@H](NC(C)=O)CC2
2. COc1cc2c(c(OC)c1OC)-c1ccc(OC)c(=O)cc1[C@@H](n1cc(CCCC3=C4C(C)=CC(C)=[N+]4[B-](F)(F)n4c(C)cc(C)c43)[n+](C)n1)CC2

1. 25.51
2. 23.77
